Each record here notes measured Activity.
target: Protein cereblon/Tyrosine-protein phosphatase non-receptor type 1 (Homo sapiens, UniProt P18031+Q96SW2); assay: PROTAC activity at PTP1B/CRBN in insulin treated human HepG2 cells assessed as protein degradation at 625 nM incubated for 48 hrs by Western blot analysis relative to control; assay type: cell-based
Sequence (P18031 whole entry, looked up): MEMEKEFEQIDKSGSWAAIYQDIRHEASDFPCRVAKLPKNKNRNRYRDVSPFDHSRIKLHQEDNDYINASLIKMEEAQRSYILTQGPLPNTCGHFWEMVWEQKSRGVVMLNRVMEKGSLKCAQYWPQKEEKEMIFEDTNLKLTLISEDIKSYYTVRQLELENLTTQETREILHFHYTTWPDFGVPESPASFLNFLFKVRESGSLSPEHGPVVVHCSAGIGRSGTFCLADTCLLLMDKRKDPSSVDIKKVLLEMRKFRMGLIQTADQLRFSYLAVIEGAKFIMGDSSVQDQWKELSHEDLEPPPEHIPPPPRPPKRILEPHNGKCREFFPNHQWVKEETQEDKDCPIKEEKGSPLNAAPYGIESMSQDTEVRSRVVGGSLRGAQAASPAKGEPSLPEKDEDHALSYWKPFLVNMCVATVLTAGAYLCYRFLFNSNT
Sequence (Q96SW2 whole entry, looked up): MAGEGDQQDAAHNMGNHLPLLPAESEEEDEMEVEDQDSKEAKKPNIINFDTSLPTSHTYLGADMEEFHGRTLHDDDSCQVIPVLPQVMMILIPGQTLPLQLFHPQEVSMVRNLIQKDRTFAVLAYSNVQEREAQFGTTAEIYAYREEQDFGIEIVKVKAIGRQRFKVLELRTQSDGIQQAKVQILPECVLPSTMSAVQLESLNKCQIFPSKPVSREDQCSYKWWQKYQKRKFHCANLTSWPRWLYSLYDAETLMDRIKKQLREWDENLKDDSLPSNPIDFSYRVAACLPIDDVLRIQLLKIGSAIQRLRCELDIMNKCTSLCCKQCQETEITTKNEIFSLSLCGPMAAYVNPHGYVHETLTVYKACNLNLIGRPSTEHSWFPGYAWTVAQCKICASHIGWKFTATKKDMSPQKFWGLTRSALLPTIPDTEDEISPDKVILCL
Mention the unit after the number when you answer.

Record excerpt, results attached:
COMPOUND	REPORTED
C[C@H]1[C@H](C)CC[C@]2(C(=O)NCCCCCCOCCOCCOCCOCC(=O)Nc3cccc4c3C(=O)N(C3CCC(=O)NC3=O)C4=O)CC[C@]3(C)C(=CC[C@@H]4[C@@]5(C)CC[C@H](O)C(C)(C)[C@@H]5CC[C@]43C)[C@H]12 (stereo not given in full)	68%
CC1(C)CC[C@]2(C(=O)NCCCCCCOCCOCCOCCOCCCCCC(=O)Nc3cccc4c3C(=O)N(C3CCC(=O)NC3=O)C4=O)CC[C@]3(C)C(=CC[C@@H]4[C@@]5(C)CC[C@H](O)C(C)(C)[C@@H]5CC[C@]43C)[C@@H]2C1 (stereo not given in full)	43%
CC1(C)CC[C@]2(C(=O)NCCCOCCOCCOCCCNc3cccc4c3C(=O)N(C3CCC(=O)NC3=O)C4=O)CC[C@]3(C)C(=CC[C@@H]4[C@@]5(C)CC[C@H](O)C(C)(C)[C@@H]5CC[C@]43C)[C@@H]2C1 (stereo not given in full)	51%
CC1(C)CC[C@]2(C(=O)NCCCOCCCCOCCCNc3cccc4c3C(=O)N(C3CCC(=O)NC3=O)C4=O)CC[C@]3(C)C(=CC[C@@H]4[C@@]5(C)CC[C@H](O)C(C)(C)[C@@H]5CC[C@]43C)[C@@H]2C1 (stereo not given in full)	45%

Then there is this compound:
Exercise: Entry C[C@H]1[C@H](C)CC[C@]2(C(=O)NCCCCCCOCCOCCOCC(=O)Nc3cccc4c3C(=O)N(C3CCC(=O)NC3=O)C4=O)CC[C@]3(C)C(=CC[C@@H]4[C@@]5(C)CC[C@H](O)C(C)(C)[C@@H]5CC[C@]43C)[C@H]12 (stereo not given in full) has what Activity?
Key: 21%

---

biological target: Protein cereblon/Tyrosine-protein phosphatase non-receptor type 1 (Homo sapiens, UniProt P18031+Q96SW2); experiment: PROTAC activity at PTP1B/CRBN in insulin treated human HepG2 cells assessed as protein degradation at 1 nM incubated for 72 hrs by Western blot analysis relative to control; format: cell-based
Documented Activity across a set of compounds
Give just the number in %; leave the unit off.

Exercise: Entry under review: C[C@H]1[C@H](C)CC[C@]2(C(=O)NCCCCCCOCCOCCOCCOCC(=O)Nc3cccc4c3C(=O)N(C3CCC(=O)NC3=O)C4=O)CC[C@]3(C)C(=CC[C@@H]4[C@@]5(C)CC[C@H](O)C(C)(C)[C@@H]5CC[C@]43C)[C@H]12 (stereo partly drawn) . Reported Activity?
Key: 30

Exercise: Then this compound: CC1(C)CC[C@]2(C(=O)NCCCOCCCCOCCCNc3cccc4c3C(=O)N(C3CCC(=O)NC3=O)C4=O)CC[C@]3(C)C(=CC[C@@H]4[C@@]5(C)CC[C@H](O)C(C)(C)[C@@H]5CC[C@]43C)[C@@H]2C1 (stereo partly drawn)
Key: 5

---

Activity listing for selected molecules.
target: Protein cereblon/Tyrosine-protein phosphatase non-receptor type 1 (Homo sapiens, UniProt P18031+Q96SW2); assay: PROTAC activity at PTP1B/CRBN in insulin treated human HepG2 cells assessed as protein degradation at 25 nM incubated for 48 hrs by Western blot analysis relative to control; type: cell-based
Provide the reading as a plain figure in %.

Recorded results for 2 molecules are shown here.
MOLECULE	Activity / %
C[C@H]1[C@H](C)CC[C@]2(C(=O)NCCCCCCOCCOCCOCCOCC(=O)Nc3cccc4c3C(=O)N(C3CCC(=O)NC3=O)C4=O)CC[C@]3(C)C(=CC[C@@H]4[C@@]5(C)CC[C@H](O)C(C)(C)[C@@H]5CC[C@]43C)[C@H]12 (stereo not given in full)	23
C[C@H]1[C@H](C)CC[C@]2(C(=O)NCCCCCCOCCOCCOCC(=O)Nc3cccc4c3C(=O)N(C3CCC(=O)NC3=O)C4=O)CC[C@]3(C)C(=CC[C@@H]4[C@@]5(C)CC[C@H](O)C(C)(C)[C@@H]5CC[C@]43C)[C@H]12 (stereo not given in full)	33

Exercise: # Activity lookup, item CC1(C)CC[C@]2(C(=O)NCCCCCCOCCOCCOCCOCCCCCC(=O)Nc3cccc4c3C(=O)N(C3CCC(=O)NC3=O)C4=O)CC[C@]3(C)C(=CC[C@@H]4[C@@]5(C)CC[C@H](O)C(C)(C)[C@@H]5CC[C@]43C)[C@@H]2C1 (stereo not given in full)
Key: 51
